Assay: log P (HPLC/MS data of the preparation examples)
Conditions: LC-MS, method [b]: pH 2.7 with 0.1% formic acid in water and acetonitrile, linear gradient 10% to 95% acetonitrile
PARAMETER_MEASURED: log p

Entry under test: COc1ccc(C(=NOCc2cccc(N3C(=O)c4ccccc4C3=O)n2)c2ncc(C(F)(F)F)cc2Cl)cc1Br . Its log p was 4.78^[b]

Entry under test: CCC(C)COC(=O)Nc1cccc(CON=C(c2ccccc2)c2nccn2C)n1 (stereo not drawn) . Its log p was 2.52^[b]

Entry under test: Cn1ncnc1C(=NOCc1cccc(NC(=O)Cc2cccs2)n1)c1ccccc1 . Its log p was 2.98^[b]

Entry under test: C#CCCOC(=O)Nc1cccc(CON=C(c2ccccc2)c2nccn2C)n1 . Its log p was 1.78^[b]

Entry under test: CCCCCOC(=O)N(C)c1cccc(CON=C(c2ccccc2)c2ncnn2C)n1 . Its log p was 4.39^[b]

Entry under test: Cc1cnc(C)c(C(=NOCc2cccc(N3C(=O)c4ccccc4C3=O)n2)c2ccccc2)n1 . Its log p was 3.35^[b]

Entry under test: COc1ccc(C(=NOCc2cccc(NC(=O)CC(C)C)n2)c2ncc(C(F)(F)F)cc2Cl)cc1Br . Its log p was 5.03^[b]

Entry under test: CCCCS(=O)(=O)N(c1cccc(CON=C(c2cccc(C)c2)c2ncnn2C)n1)S(=O)(=O)CCCC . Its log p was 4.49^[b]

Entry under test: CC(C)COC(=O)Nc1cccc(CON=C(c2ccccc2)c2ncnn2C)n1 . Its log p was 3.52^[b]

Entry under test: Cc1ncoc1C(=NOCc1csc(N)n1)c1ccccc1 [Example 351] . Its log p was 1.46^[b]

Entry under test: CCCCOC(=O)Nc1cccc(CON=C(c2ccccc2)c2ncnn2C)n1 . Its log p was 3.53^[b]

Entry under test: CCCCCOC(=O)Nc1cccc(CON=C(c2ccccc2C)c2ncnn2C)n1 . Its log p was 4.06^[b]

Entry under test: CCCCCOC(=O)Nc1cccc(CON=C(c2ccc(C)cc2)c2ncnn2C)n1 . Its log p was 4.31^[b]

Entry under test: C=CCCOC(=O)Nc1cccc(CON=C(c2ccccc2)c2nccn2C)n1 . Its log p was 2.02^[b]

Entry under test: Cn1ncnc1C(=NOCc1nccc(NC(=O)CCc2ccccc2)n1)c1cccs1 . Its log p was 2.9^[b]

Entry under test: CCCOC(=O)Nc1cccc(CON=C(c2ccccc2)c2ncnn2C)n1 . Its log p was 3.15^[b]

Entry under test: Cn1ncnc1C(=NOCc1cccc(NC(=O)OCCCCCl)n1)c1ccccc1 . Its log p was 3.39^[b]

Entry under test: COCCOC(=O)Nc1cccc(CON=C(c2ccccc2)c2nccn2C)n1 . Its log p was 1.34^[b]

Entry under test: CCCCS(=O)(=O)N(c1cccc(CON=C(c2ccccc2)c2cnnn2C)n1)S(=O)(=O)CCCC . Its log p was 4.26^[b]

Entry under test: COCCOC(=O)Nc1cccc(CON=C(c2cccc(F)c2)c2nccn2C)n1 . Its log p was 1.66^[b]

Entry under test: CCCCCOC(=O)Nc1nc(CON=C(c2ccccc2)c2cnnn2C)cs1 . Its log p was 3.76^[b]
